Attribution: PubChem BioAssay

assay: antimalarial activity against Dd2 strain (AID 2302);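 also: 0% = DMSO untreated growth and 100% = chloroquine plus artemisinin killed control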; conditions: P. falciparum Dd2 in RBCs, LDH growth readout, 72 h; at 2 µM; hits give high values
property-measured: growth inhibition (%)
Give bare numbers, in %.

Dear colleague, could you send me growth inhibition for each of the items below? Thanks.
1. CCN(CC)CCNc1nccc(N(C)c2ccc(NC(=O)Nc3cc(C(F)(F)F)ccc3F)cc2)n1
2. CCc1cc(Br)c2c(c1)C(NCCCNc1cc(=O)c3ccccc3[nH]1)CCN2 (stereo not given)

Result:
[25, 20]

List reported growth inhibition for each of these compounds:
1. Cc1cc(OCCCN2CCN(CCN3CCOCC3)CC2)ccc1NC(=O)COc1ccc(Cl)cc1C(=O)c1cc(Cl)cc(C#N)c1
2. CCOC(=O)C(NC(=O)Cc1ccccc1)C(C)C (stereo not given)

Result:
1: 78; 2: 98

Look up growth inhibition for the entries below, preserving their order.
1. COc1ccc(CN(C)Cc2ccc(NC(=O)c3cccc4c(=O)c5cccc(C)c5[nH]c34)cc2)cc1OC
2. Cc1cc(Nc2nc(Nc3cccc(Cl)c3)nc3ccccc23)n[nH]1
3. CC(C)CCN1CCCN(Cc2ccc(C(=O)Nc3ccc(C(C)(C)C)cc3)cc2)CC1
4. Cc1cc(F)ccc1-c1nc(N(C)CCN(C)C(=O)N(C)c2ccccc2)nc2c1ccc(=O)n2-c1c(F)cccc1F

Result:
22
95
12
77

Hey, can you go through the list below and give me growth inhibition for every item?
1. COC(=O)C(C)(C)Cc1c(SC(C)(C)C)c2cc(C(C)C)ccc2n1Cc1ccc(Cl)cc1
2. CC(C)CNC(=O)CN1C(=O)C(c2ccccc2)(c2ccccc2)N=C1N
3. CN(c1ccc2c(c1)nc(NCc1ccccc1)n2C)c1ccnc(Nc2ccc(CS(C)(=O)=O)cc2)n1
4. CCNC(=O)Nc1ccc(-c2cnc(N)c(-c3nc4ccc(OC)cc4[nH]3)c2)cc1
5. CC(C)CCNc1nc(NCc2ccccc2)c2cc(O)ccc2n1
6. CC1CCCN(Cc2cc(Cl)cc(Cl)c2O)C1 (stereo not given)

Result:
1: 96; 2: 46; 3: 69; 4: 43; 5: 92; 6: 77
